method-description: Equilibrium solubility in water and bio-relevant media (SGF, FaSSIF, FeSSIF)
cond: water, thermodynamic from solid, H2O solubility (mg/mL; salt); HCl salt tested at 100 mg/mL, other salts at 50 mg/mL
measured-parameter: solubility

molecule	measured
CC(C)[C@@H]1[C@H]2CC[C@H](C2)[C@H]1N.O=C(O)/C=C/C(=O)O [Fumarate Type A]	12.3 mg/mL
CC(C)[C@@H]1[C@H]2CC[C@H](C2)[C@H]1N.O=C(O)/C=C\C(=O)O [Maleate Type A]	> 25 mg/mL

Please supply the value of reported solubility for the item CC(C)[C@@H]1[C@H]2CC[C@H](C2)[C@H]1N (racemic) [Phosphate Type B]
> 33 mg/mL

* * *

For each record, write down the corresponding solubility.
method-description: Equilibrium solubility in water and bio-relevant media (SGF, FaSSIF, FeSSIF)
cond: water, thermodynamic from solid, H2O solubility (mM; salt)

compound	solubility
CC(C)[C@@H]1[C@H]2CC[C@H](C2)[C@H]1N.O=C(O)/C=C/C(=O)O [Fumarate Type A]	44.6 mM
CC(C)[C@@H]1[C@H]2CC[C@H](C2)[C@H]1N.O=C(O)/C=C\C(=O)O [Maleate Type A]	> 92.8 mM

We now examine a further compound.
Indicate the recorded solubility value for this compound: CC(C)[C@@H]1[C@H]2CC[C@H](C2)[C@H]1N (racemic) [Phosphate Type B]
> 163 mM

* * *

Task for the reader: assign each of the following compounds its reported ECMax.
Tested on: MUC1-fs
method-description: High-content imaging assay of MUC1-fs total cytoplasm intensity in P cells
Type: cell-based
cond: MUC1-fs; DMSO = 0, JQ1 (250 nM) = −100% activity
Numbers only, in %.

Reference set, count: 3
compound	unit	ECMax
Cl.N[C@H]1[C@@H]2CC[C@@H](C2)[C@@H]1C1CCCCC1 (racemic) [Compound 119]	%	20.39
CC(C)C[C@H]1[C@H]2CC[C@H](C2)[C@@H]1N.Cl (racemic) [Compound 112]	%	18.48
CC(C)[C@H]1[C@H]2CC[C@H](C2)[C@H]1N.Cl (racemic) [Compound 103]	%	−83.25

Now for another entry.
Supply reported ECMax belonging to this compound: Cl.N[C@@H]1[C@@H]2CC[C@@H](C2)[C@H]1C1CCC1 (single isomer, unassigned) [Compound 113-P1]
−13.24

* * *

System: MUC1-wt
method-description: High-content imaging assay of MUC1-wt total cytoplasm intensity in P cells
Type: cell-based
cond: MUC1-wt; DMSO = 0, JQ1 (250 nM) = −100% activity
measured-parameter: WT ECMax (%)
Answers are plain numbers, in %.

# count of solved cases: 3
compound	unit	WT ECMax
CCC[C@@H]1[C@H]2CC[C@H](C2)[C@H]1N.Cl [Compound 107-P1]	%	14.07
Cl.N[C@@H]1[C@@H]2CC[C@@H](C2)[C@H]1C1CCC1 (racemic) [Compound 113]	%	13.12
Cl.N[C@@H]1[C@H]2CC[C@H](C2)[C@H]1C1CCCCC1 (single isomer, unassigned) [Compound 119-P2]	%	0

Now for the compound whose WT ECMax we want.
Consider the compound C[C@@H]1[C@H]2CC[C@H](C2)[C@H]1N.Cl (single isomer, unassigned) [Compound 104-P1] tested on MUC1-wt; state its WT ECMax.
−13.75

* * *

method-description: physchem
cond: water, thermodynamic from solid, H2O solubility (mg/mL; salt)
measured-parameter: solubility

Give the reported solubility for this compound. CC(C)[C@@H]1[C@H]2CC[C@H](C2)[C@H]1N.O=C(O)CCC(=O)O [Succinate Type A]
> 28 mg/mL

* * *

method-description: Physical and chemical stability on storage (LC-MS and XRPD)
Type: physicochemical
cond: summary grade Good/Moderate/Poor; 1 week stability assay
Method: To compare the physical/chemical stability of the salt candidates, approximate 10 mg of each solid sample was added to a 5-mL glass vial covered with Parafilm® with several pin-holes on it, and then stored under 25° C./60% RH and 40° C./75% RH. After one week storage, solids were taken out for LC-MS and XRPD test to evaluate physical and chemical stability.
measured-parameter: Stability (matrix of results from solid form characterization)

Sample records with Stability (matrix of results from solid form characterization):
compound	measured
CC(C)C1C2CCC(C2)C1N.Cl (racemic) [HCl salt Type A, reference compound]	Good
CC(C)[C@@H]1[C@H]2CC[C@H](C2)[C@H]1N.O=C(O)/C=C\C(=O)O [Maleate Type A]	Good
CC(C)[C@@H]1[C@H]2CC[C@H](C2)[C@H]1N [L-malate Type C]	Poor
CC(C)[C@@H]1[C@H]2CC[C@H](C2)[C@H]1N.O=C(O)/C=C/C(=O)O [Fumarate Type A]	Good

Please list Stability (matrix of results from solid form characterization) recorded for the compound CC(C)[C@@H]1[C@H]2CC[C@H](C2)[C@H]1N (racemic) [Phosphate Type B]
Poor

* * *

Assign ECMax to each entry below.
System: MUC1-fs
method-description: High-content imaging assay of MUC1-fs total cytoplasm intensity in P cells
Type: cell-based
cond: MUC1-fs; DMSO = 0, JQ1 (250 nM) = −100% activity

// below: answered compounds
compound	ECMax
CCC[C@@H]1[C@H]2CC[C@H](C2)[C@H]1N.Cl (racemic) [Compound 107-rac]	10.08%
CC(C)C[C@@H]1[C@H]2CC[C@H](C2)[C@H]1N.Cl (single isomer, unassigned) [Compound 111-P1]	−12.73%
Cl.N[C@@H]1[C@@H]2CC[C@@H](C2)[C@H]1C1CCCCC1 (single isomer, unassigned) [Compound 118-P1]	−7.97%
CC(C)C[C@H]1[C@@H]2CC[C@@H](C2)[C@@H]1N.Cl (single isomer, unassigned) [Compound 111-P2]	−11.51%

Would you mind giving ECMax for every compound in the list below?
1. Cl.N[C@@H]1[C@@H]2CC[C@@H](C2)[C@H]1C1CCCCC1 (racemic) [Compound 118]
2. Cl.N[C@H]1[C@@H]2CC[C@@H](C2)[C@@H]1C1CCC1 (racemic) [Compound 114-rac]
3. CCC[C@@H]1[C@@H]2CC[C@@H](C2)[C@H]1N.Cl [Compound 108-P2]

1: −9.08%; 2: −44.74%; 3: 22.43%

* * *

method-description: Equilibrium solubility in water and bio-relevant media (SGF, FaSSIF, FeSSIF)
cond: final solution in FeSSIF
Threshold check on pH: at or above 5 gives criterion met, strictly below gives criterion not met.

compound	category
CC(C)[C@@H]1[C@H]2CC[C@H](C2)[C@H]1N [L-malate Type C]	criterion met

Confirm if pH reported for the compound CC(C)[C@@H]1[C@H]2CC[C@H](C2)[C@H]1N.O=C(O)/C=C\C(=O)O [Maleate Type A] is 5 or above.
criterion not met

Please tell me: is the compound CC(C)[C@@H]1[C@H]2CC[C@H](C2)[C@H]1N.O=C(O)/C=C/C(=O)O [Fumarate Type A] at or over 5 in terms of pH?
criterion not met

Textbook exercise: given the entry CC(C)C1C2CCC(C2)C1N.Cl (racemic) [HCl salt Type A, reference compound] , state whether its pH is greater than or equal to 5.
criterion not met

// inclusive: pH at least 5? input: CC(C)[C@@H]1[C@H]2CC[C@H](C2)[C@H]1N (racemic) [Phosphate Type B]
criterion not met

Reported pH at or above 5? CC(C)[C@@H]1[C@H]2CC[C@H](C2)[C@H]1N.O=C(O)CCC(=O)O [Succinate Type A]
criterion not met

* * *

Consider the following molecules; for each one, report its WT ECMax.
System: MUC1-wt
method-description: High-content imaging assay of MUC1-wt total cytoplasm intensity in P cells
Format: cell-based
cond: MUC1-wt; DMSO = 0, JQ1 (250 nM) = −100% activity
Answers are plain numbers, in %.

molecule	WT ECMax [%]
CCC[C@H]1[C@H]2CC[C@H](C2)[C@@H]1N.Cl (racemic) [Compound 108-rac]	−4.32
CC(C)[C@H]1[C@H]2CC[C@H](C2)[C@H]1N.Cl (racemic)	−13.31
CCC[C@H]1[C@H]2CC[C@H](C2)[C@@H]1N.Cl [Compound 108-P1]	−12.05
Cl.N[C@H]1[C@@H]2CC[C@@H](C2)[C@@H]1C1CCCC1 (single isomer, unassigned) [Compound 117-P1]	7.72
Cl.N[C@@H]1[C@H]2CC[C@H](C2)[C@H]1C1CC1 (single isomer, unassigned) [Compound 110-P2]	−12.31

For every item in the list below, what is its measured WT ECMax?
1. Cl.N[C@@H]1[C@@H]2CC[C@@H](C2)[C@H]1C1CCC1 (single isomer, unassigned) [Compound 113-P1]
2. Cl.N[C@H]1[C@H]2CC[C@H](C2)[C@@H]1c1ccccc1 (single isomer, unassigned) [Compound 120-P2]

1. −9.71
2. −11.21

Items follow; give WT ECMax for each.
1. CC(C)[C@H]1[C@H]2CC[C@H](C2)[C@@H]1N.Cl
2. Cl.N[C@H]1[C@@H]2CC[C@@H](C2)[C@@H]1C1CCC1 (single isomer, unassigned) [Compound 114-P1]
3. CC(C)C[C@@H]1[C@@H]2CC[C@@H](C2)[C@H]1N.Cl (single isomer, unassigned) [Compound 112-P2]
4. CC(C)C[C@H]1[C@@H]2CC[C@@H](C2)[C@@H]1N.Cl (single isomer, unassigned) [Compound 111-P2]

1: −16.83; 2: 5.99; 3: 7.52; 4: −9.06
